# System: PC3(+) xenografts
# Assay Method Text: In vivo biodistribution in PC3(+) xenograft mice
# Design: key: T:M = (%ID/g in tissue) / (%ID/g in muscle)
# Condition Details: 60 min; mean ± SE, n = 8–10
Kindly return condition met if reported Femur T:M is no lower than 0.9; return condition not met if it is lower.

O=C(O)CC[C@H](NC(=O)N[C@@H](CCCCNC(=O)CO/N=C\c1ccc([18F])nc1)C(=O)O)C(=O)O [[^18F]1b]: condition met
O=C(O)CC[C@H](NC(=O)N[C@@H](CCCCNC(=O)CCCCCO/N=C\c1ccc([18F])cc1)C(=O)O)C(=O)O [[^18F]2a]: condition not met

Next compound, please.
Does O=C(O)CC[C@H](NC(=O)N[C@@H](CCCCNC(=O)CCCCCO/N=C\c1ccc([18F])nc1)C(=O)O)C(=O)O [[^18F]2b] have a reported Femur T:M of at least 0.9? condition met
